test system: HCT-15 colon; assay: NCI tumour cell line growth inhibition, 48 h
assay-metric: TGI

* CC1(C)C2C/C(=C\c3ccccc3)C(=O)C1C2 (configuration not stated) | > 100 µM
* Cc1ccc(N2C(=O)/C(=C/c3ccc(N(CCC#N)CCC#N)cc3C)N=C2c2cc([N+](=O)[O-])ccc2Cl)cc1 | > 100 µM
* OCCNCCNc1c2ccccc2nc2oc3ccccc3c12 | 53.1 µM
* c1ccc2c3c([nH]c2c1)C1(CCCCC1)c1c([nH]c2ccccc12)C31CCCCC1 | > 100 µM
* C/C=C/C=C\C1OC(O)([C@H](CC)C(=O)NC/C=C/C=C(\C)[C@H](OC)C(C)C2OC(\C=C/C=C/C=C(\C)C(=O)c3c(O)ccn(C)c3=O)[C@H](O)[C@@H]2O)C(O)C(O)C1(C)C (some centres not stated) | > 100 µM
* O=c1n(CCCCn2c(=O)n(CC3CS3)c3ccccc32)c2ccccc2n1CC1CS1 (configuration not stated) | 33.2 µM
* CCOC(=O)c1nc2ccccc2nc1Oc1ccc(OC)cc1 | > 100 µM
* CN1CCn2c(c(Sc3ccc(C(=O)NO)cc3)c3ccccc32)C1=O | 14.3 µM
* C=C1C(=O)O[C@H]2[C@H]1CC/C(CNS(=O)(=O)c1cccc3ccccc13)=C\CC[C@@]1(C)O[C@@H]21 | 2.7 µM
* CC1OC(OC2C(O[C@@H]3C[C@@H]4CC[C@@H]5[C@H](CC[C@]6(C)C7C(C[C@@H]56)O[C@]5(CC[C@@H](C)CO5)[C@H]7C)[C@@]4(C)C[C@H]3O)OC(CO)C(O)C2O)C(O)C(O)C1O (some centres not stated) | 3.27 µM
* COc1ccc2c(c1)OC(N)=C(C#N)C2c1ccc(F)cc1 (configuration not stated) | 51.6 µM
* FC(F)(F)C1(C(F)(F)F)O[SiH]2(OC(C(F)(F)F)(C(F)(F)F)c3ccccc32)c2ccccc21 | 25.9 µM
* COC1=CC(=O)[C@]2(C)[C@H](C1=O)C(C)[C@H]2c1ccccc1 (some centres not stated) | > 100 µM
* O=P1(O)c2ccccc2Nc2cc(C(F)(F)F)ccc21 | > 100 µM
* Cc1csc2nc3[nH]ncc3c(=O)n12 | > 100 µM
* COc1ccccc1/C=N/N=C(\N)NO | > 100 µM
* COc1cccc2c(=O)c3c(sc12)c(NCCN(C)C)nc1ccccc13 | 2.41 µM
* COC(=O)[C@@]1(O)C[C@H]2O[C@]1(C)n1c3ccccc3c3c4c(c5c6ccccc6n2c5c31)C(=O)NC4 | 2.5 µM
* O=C1C[C@H]2CC3(CC[C@H]2CN1)OCCO3 | > 100 µM
* C[CH2][Sn]([Cl])([Cl])[CH2]C | > 60.9 µM
* CC1SC(=O)SC1C (configuration not stated) | > 100 µM
* Clc1ccc(-c2nc3ccc(C45CC6CC(CC(C6)C4)C5)cc3[nH]2)cc1 | > 72.8 µM
* CN(C)CCNC(=O)c1cc(-c2nccn2C)nc2ccccc12 | > 100 µM
* Clc1ccc(-c2nnc(C34CC5CC(CC(C5)C3)C4)o2)cc1 | > 100 µM
* Oc1ccc(N=Nc2ccc(N=Nc3ccccc3)cc2)cc1 | 12.9 µM
* CC(C)C[C@@H]1NC(=O)[C@@H]2CCCN2C(=O)[C@@H]2CCCN2C(=O)[C@H](CC(C)C)NC(=O)[C@H](CO)NC(=O)[C@H](CCCCN)NC(=O)[C@H]([C@H](C)O)NC(=O)[C@@H]2CCCC[C@@H](NC1=O)C(=O)N[C@@H](Cc1ccccc1)C(=O)N1CCC[C@H]1C(=O)N[C@@H](CC(=O)O)C(=O)NCC(=O)N[C@@H](CCCN=C(N)N)C(=O)N2 | > 50 µM
* O=C(CN1C(=O)c2ccccc2C1=O)C(O)CN1C(=O)c2ccccc2C1=O (configuration not stated) | > 100 µM
* NCCCCN(Cc1nc2ccccc2[nH]1)[C@H]1CCCc2cccnc21 | > 100 µM
* CC(=O)c1cccc(NC(=O)C(=O)C(C(=O)c2ccccc2F)C2OC(=O)c3ccccc32)c1 (configuration not stated) | > 100 µM
* COc1ccc2nc(C)cc(Nc3ccccc3O)c2c1 | > 100 µM
* Cc1nn(C(=O)Cc2ccccc2)c2c1C(c1ccccc1[N+](=O)[O-])SC(N)=N2 (configuration not stated) | > 100 µM
* O=S1c2ccccc2SCSc2ccccc21 | > 100 µM
* Cn1c(=O)c(C(=O)NC(=O)OCc2ccccc2)cn(CCSCCOC(=O)NCCCCCCNC(=O)OCCSCCn2cc(C(=O)NC(=O)OCc3ccccc3)c(=O)n(C)c2=O)c1=O | > 100 µM
* COc1ccc2c(c1)CC1c3c(cc4c(c3-2)OCO4)CCN1C (configuration not stated) | > 100 µM
* CCSC(=O)/C=C1\CN(C(=O)OC(C)(C)C)C1C(=O)OC(C)(C)C (configuration not stated) | 3.93 µM
* O=C(/C=C/c1ccc(C(F)(F)F)cc1)c1ccc(Nc2nc(NCCO)nc(N3CCOCC3)n2)cc1 | 4.82 µM
* O=C1C[C@@H]2CCCC[C@@H]2C12SCCS2 | > 100 µM

Origin of measurements: PubChem BioAssay (NCI)
